Target: T1, cyno TIGIT on cells (cynomolgus macaque)
T1 construct: whole, on cells; also called Expi293 cyno TIGIT over-expressing cells
Test: FACS titration on cyno TIGIT OE Expi293 cells, binding site concentration; ± 95% CI; 'Fit: Good/Excellent'
assay-endpoint: pKd
Expect pKd as a plain number equal to -log10 of the molar concentration.

Which value of pKd has been reported for BM29 hIgG4 (antibody, V domains shown, benchmark anti-human TIGIT antibody, human IgG4 with S241P; also called BM29-H4; US2016/0176963A1 Clone 22G2 as hIgG4) VH: QVHLQESGPGLVKPSETLSLTCTVSGGSVSSGIYYWSWIRQPPGKGLEWIGYIYYSGSTNYNPSLKSRVTISVDTSKNQFSLKLSSVTAADTAVYYCARDYYVSGNYYNVDYYFFGVDVWGQGTTVTVSS VL: EIVLTQSPATLSLSPGERATLSCRASQSVSSYLAWYQQKPGQAPRLLIYDASNRATGIPARFSGSGSGTDFTLTISSLEPEDFAVYYCQQRSNWPPLFTFGPGTKVDIKR in the records?
8.78

Provenance of the data: patent US20240075137A1
